Overview of reported growth across a group of molecules:
- Test system: NCI-H522 lung
- protocolDescription: NCI-60 one-dose screen, 48 h (100 = growth as untreated, 0 = no growth, -100 = all killed)
- measurementContext: 10 µM unless noted
This is part of a sample that, as a whole, favours compounds with a hit. Of some 83,000 tested, about 20% had one in any assay.
// note: answer is a bare numeric in %

Example results:
molecule	targetSystem	growth [%]
c1ccc(CSC(c2ccccc2)c2ccccc2)cc1	NCI-H522 lung	97.6
CC[C@H](C)[C@@H]1OC(=O)C(C)(C)[C@H](O)[C@H](Cc2ccccc2)OC(=O)[C@H](C(C)C)OC(=O)[C@@H](NC(=O)c2cccc(NC=O)c2O)[C@@H](C)OC1=O	NCI-H522 lung	38.9
Clc1cccc(Cl)c1Cl	NCI-H522 lung	65.1
ClCCN(CCCl)c1ccc(-n2cnc3c(Cl)ncnc32)cc1	NCI-H522 lung	-76.9
COC(=O)[C@@H](C)C[C@H](Cc1ccc(F)cc1)NC(=O)c1csc([C@@H](C[C@H](C(C)C)N(C)C(=O)[C@@H](NC(=O)[C@H]2CCCCN2C)C2CC2)OC(C)=O)n1	NCI-H522 lung	-15.2

# get_value(readout='growth', item= N#Cc1c(Br)n(C2OC(CO)C(O)C2O)c2ncnc(N)c12 (centres undefined) )
60.5

# get_value(readout='growth', item= COc1cc(/C=N/C2=C(C#N)C(c3ccco3)c3c(c4cc(C)ccc4oc3=O)O2)cc(OC)c1OC (centres undefined) )
40.3

# get_value(readout='growth', item= COc1ccc(/C=C\c2cc(OC)c(OC)c(OC)c2)cc1NS(=O)(=O)c1ccc(Cl)cc1 )
25.9

# get_value(readout='growth', item= COc1ccc(S(=O)(=O)N(Cc2ccc3c(c2)C=CC(C)(C)O3)c2ccccc2)cc1OC )
61.5

# get_value(readout='growth', item= CN1C(=O)C(=Cc2cn(Cc3ccccc3)c3ccccc23)C(=O)N(C)C1=O )
92.6

# get_value(readout='growth', item= O=[N+]([O-])c1cnc[nH]1 )
106

The reported measurements were obtained from PubChem BioAssay (NCI).
